Biological target: RAC-alpha serine/threonine-protein kinase (Homo sapiens) (UniProt P31749);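 also: reported values are mean inhibition figures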
Sequence (P31749 whole entry): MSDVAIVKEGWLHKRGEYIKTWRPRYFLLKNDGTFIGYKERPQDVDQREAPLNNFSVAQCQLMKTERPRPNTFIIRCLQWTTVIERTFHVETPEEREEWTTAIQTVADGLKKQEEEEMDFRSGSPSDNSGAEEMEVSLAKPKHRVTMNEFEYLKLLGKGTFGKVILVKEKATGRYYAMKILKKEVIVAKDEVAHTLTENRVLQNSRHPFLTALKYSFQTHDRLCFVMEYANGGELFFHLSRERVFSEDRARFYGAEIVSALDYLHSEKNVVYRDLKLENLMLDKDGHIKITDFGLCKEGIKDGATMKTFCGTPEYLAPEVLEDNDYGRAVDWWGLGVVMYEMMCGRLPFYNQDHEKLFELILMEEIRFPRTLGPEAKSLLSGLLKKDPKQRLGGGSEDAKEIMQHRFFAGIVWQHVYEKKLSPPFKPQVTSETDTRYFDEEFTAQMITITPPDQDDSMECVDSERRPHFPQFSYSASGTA
Settings: at 0.1 µM
endpoint: inhibition (%)
Numbers only, in %.

molecule | study_system | unit_label | inhibition
COc1ccc(Nc2ncc(-c3ccccc3)o2)cc1OC | RAC-alpha serine/threonine-protein kinase (Homo sapiens) (UniProt P31749) | % | -0.43
COc1cc(N2CCN(C(C)C)CC2)ccc1Nc1nc(Nc2cccc3ncccc23)c2cc[nH]c2n1 | RAC-alpha serine/threonine-protein kinase (Homo sapiens) (UniProt P31749) | % | -0.64
COC(=O)Nc1nc2ccc(Oc3ccc(NC(=O)Nc4cc(C(F)(F)F)ccc4F)cc3)cc2s1 | RAC-alpha serine/threonine-protein kinase (Homo sapiens) (UniProt P31749) | % | -0.37
CC1=C(C(=O)Nc2ccc3[nH]ncc3c2)C(c2ccc(F)cc2)N=C(c2ccc(C(F)(F)F)nc2)N1 (centres undefined) | RAC-alpha serine/threonine-protein kinase (Homo sapiens) (UniProt P31749) | % | 0.83
COc1cccc(-n2ncc3c(N/N=C/c4ccc(C(=O)NCCN(C)C)cc4)ncnc32)c1 | RAC-alpha serine/threonine-protein kinase (Homo sapiens) (UniProt P31749) | % | 0.53
CS(=O)(=O)CCNCc1ccc(-c2ccc3ncnc(Nc4ccc(OCc5ccccc5)cc4)c3c2)o1 | RAC-alpha serine/threonine-protein kinase (Homo sapiens) (UniProt P31749) | % | 0.6

State the recorded inhibition for every item in the following list.
1. CNC(=O)c1sc(-n2cnc3cc(OC)c(OC)cc32)cc1OCc1ccccc1C(F)(F)F
2. O=C(O[C@H]1CN[C@H](C#Cc2cc3ncnc(Nc4ccc(OCc5cccc(F)c5)c(Cl)c4)c3s2)C1)N1CCOCC1
3. CS(=O)(=O)CCNCc1ccoc1-c1ccc2ncnc(Nc3ccc(OCc4ccccc4)cc3)c2c1
4. COc1ccc(-c2nn3ncccc3c2-c2ccnc(Nc3ccc(F)c(F)c3)n2)cc1
5. Fc1ccc(Nc2nccc(-c3c(-c4ccc(C(F)(F)F)cc4)nn4ncccc34)n2)cc1F
6. CN(c1ccc(NC(=O)NCCN2CCOCC2)cc1)c1ccnc(Nc2ccc(CS(C)(=O)=O)cc2)n1
7. CN1CCC(n2cnc(-c3ccc(F)cc3)c2-c2ccnc(NCCO)n2)CC1

1. 0.98
2. 0.61
3. -0.19
4. 0.52
5. 1.15
6. 0.71
7. 0.7

Count: 4. Required value per item: inhibition.
1. NS(=O)(=O)c1ccc(N/N=C2\C(=O)Nc3ccc(C(=O)NCc4ccncc4)cc32)cc1
2. N#Cc1ccc2c(-c3ccnc(NC4CC4)n3)c(-c3ccc(F)cc3)nn2c1
3. Fc1cccc(COc2ccc(Nc3ncncc3C#Cc3ccccc3)cc2Cl)c1
4. O=C(O[C@H]1CN[C@H](C#Cc2cc3ncnc(Nc4ccc5c(ccn5Cc5cc(F)ccc5F)c4)c3s2)C1)N1CCOCC1

1.33
0.77
0.45
0.34

Give measured inhibition for every item shown.
1. COc1ccc2ncn(-c3cc(O[C@H](C)c4ccccc4C(F)(F)F)c(C(N)=O)s3)c2c1
2. CS(=O)(=O)Nc1ccc(-c2cc(-c3ccccc3)cc(C(N)=O)c2N)cc1

-0.49
0.58

###

Could you please report measured inhibition for the items listed next?
Target: Serine/threonine-protein kinase Nek2 (Homo sapiens) (UniProt P51955);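 also: mean inhibition value from the GSK PKIS kinase screening panel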
Sequence (P51955 whole entry): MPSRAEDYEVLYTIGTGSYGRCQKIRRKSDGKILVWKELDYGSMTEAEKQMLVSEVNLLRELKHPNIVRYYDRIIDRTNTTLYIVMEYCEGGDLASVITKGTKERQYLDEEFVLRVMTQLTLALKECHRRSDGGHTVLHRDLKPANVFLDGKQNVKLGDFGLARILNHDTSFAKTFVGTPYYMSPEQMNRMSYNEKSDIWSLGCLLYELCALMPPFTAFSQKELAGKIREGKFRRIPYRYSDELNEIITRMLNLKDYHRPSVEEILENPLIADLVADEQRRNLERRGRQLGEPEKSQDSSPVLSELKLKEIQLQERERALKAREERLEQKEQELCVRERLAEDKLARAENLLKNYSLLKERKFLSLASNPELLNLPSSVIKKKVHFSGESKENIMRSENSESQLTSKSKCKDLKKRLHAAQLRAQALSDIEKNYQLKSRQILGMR
Conditions: at 0.1 µM
Give bare numbers, in %.

Solved entries (count: 5):
smiles_notation | unit_label | inhibition
COc1c(C(N)=O)cc(-c2ccc(Cl)cc2)cc1-c1ccc(S(N)(=O)=O)cc1 | % | 6.76
CCN1CCC(C(=O)Nc2n[nH]c3nnc(-c4cccc(F)c4F)cc23)CC1 | % | -0.66
CS(=O)(=O)Nc1ccc(-c2ccc3c(NC(=O)C4CC4)n[nH]c3c2)cc1 | % | 4.81
CCn1c(-c2nonc2N)nc2cncc(C(=O)NCCNC)c21 | % | 6.66
COc1cccc(-n2ncc3c(N/N=C/c4ccc(C(=O)NCCN(C)C)cc4)ncnc32)c1 | % | 0.16

For each entry beneath this line, provide reported inhibition.
1. Cc1c2ccc(N(C)c3ccnc(Nc4cccc(S(N)(=O)=O)c4)n3)cc2nn1C
2. c1ccc(-c2n[nH]cc2-c2ccnc(-c3ccc(OCCn4ccnc4)cc3)c2)nc1

6.4
0.51
